These measurements were taken from patent US20250195530A1.

Tested on: DLD-1 BRCA2−/− cells
Assay: Homologous recombination synthetic lethal inhibition of proliferation, DLD-1 BRCA2-/- (Cell Titre Glo 3D)
Format: cell-based
Details: Homo sapiens, DLD-1, 288 h, DLD-1 BRCA2−/−, 12 days, Cell Titre Glo 3D; read-out: POLQ PD Prolif Lumin BRCA2 −/− Mean pIC50 (converted)
IC50 values by entry
MEASUREMENT_TYPE: IC50 (nM)

| COMPOUND | MEASUREMENT_TYPE | RESULT_VALUE |
| --- | --- | --- |
| COc1ccc(Cl)cc1Cn1c(-c2ccc(OCC[C@H](C)C(=O)O)cc2Cl)nc2c(OC3(C)CC3)ncnc21 | IC50 | 39.8 |
| COc1ccc(Cl)cc1Cn1c(-c2cccc(OCCC(=O)O)c2Cl)nc2c(OC3(C)CC3)ncnc21 | IC50 | 15.8 |
| COc1ccc(Cl)cc1Cn1c(-c2cccc(O[C@H]3C[C@@H](C(=O)O)C3)c2Cl)nc2c(OC3(C)CC3)ncnc21 | IC50 | 12.6 |
| C[C@@H](CCOc1ccc(-c2nc3c(OC4(C)CC4)ncnc3n2Cc2cccc(Cl)c2)c(Cl)c1)C(=O)O (single isomer, unassigned; isomer 2) | IC50 | 126 |
| C[C@H](CCOc1ccc(-c2nc3c(OC4(C)CC4)ncnc3n2Cc2cccc(Cl)c2)c(Cl)c1)C(=O)O (single isomer, unassigned; isomer 1) | IC50 | 200 |
| Cc1ccnc(Cn2c(-c3ccc(OC4CNC(=O)NC4)cc3Cl)nc3c(OC4(C)CC4)ncnc32)c1 | IC50 | 6310 |

====

System: DLD-1 BRCA2−/− cells
Assay: Homologous recombination synthetic lethal inhibition of proliferation, DLD-1 BRCA2-/- (Cell Titre Glo 3D)
Format: cell-based
Details: Homo sapiens, DLD-1, first proliferation column (c5); DLD-1 BRCA2-/-; read-out: POLQ PD Prolif Lumin (converted)
Label true when IC50 is strictly below 0.3 µM; at or above that, label false.

| COMPOUND | EXPERIMENTAL_TARGET | GROUP |
| --- | --- | --- |
| Cc1c(Cl)ccnc1Cn1c(-c2ccc(OCCN3CCNCC3)cc2Cl)nc2c(OC3(C)CC3)ncnc21 [Example T525] | DLD-1 BRCA2−/− cells | false |
| Cc1ccnc(Cn2c(-c3ccc(OC4CNC4)cc3Cl)nc3c(OC4(C)CC4)ncnc32)c1 [Example T111] | DLD-1 BRCA2−/− cells | false |
| Cc1ccnc(Cn2c(-c3ccc(C(=O)NC4CC4)cc3Cl)nc3c(OC4(C)CC4)ncnc32)c1 [Example T170] | DLD-1 BRCA2−/− cells | false |
| CC1(Oc2ncnc3c2nc(-c2ccc(OCCN4CCNCC4C(F)F)cc2Cl)n3Cc2ccccc2)CC1 (centres unmarked) [Example T567] | DLD-1 BRCA2−/− cells | true |
| CNC(=O)Cc1ccc(-c2nc3c(OC4(C)CC4)ncnc3n2Cc2cc(C)ccn2)c(Cl)c1 [Example T113] | DLD-1 BRCA2−/− cells | false |
| Cc1ccnc(Cn2c(-c3ccc(OCCNC(N)=O)cc3Cl)nc3c(OC4(C)CC4)ncnc32)c1 [Example T133] | DLD-1 BRCA2−/− cells | true |
| CC(CCOc1ccc(-c2nc3c(OC4(C)CC4)ncnc3n2Cc2cc(C(F)(F)F)cc(C(F)(F)F)c2)c(Cl)c1)C(=O)O (racemic) [Example T533] | DLD-1 BRCA2−/− cells | false |
| Cc1ccnc(Cn2c(-c3ccc(OC(C)CO)cc3Cl)nc3c(OC4(C)CC4)ncnc32)c1 (single isomer, unassigned) [Example T127] | DLD-1 BRCA2−/− cells | true |
| Cc1ccnc(Cn2c(-c3ccc(CCNS(C)(=O)=O)cc3Cl)nc3c(OC4(C)CC4)ncnc32)c1 [Example T143] | DLD-1 BRCA2−/− cells | false |
| Cc1ccnc(Cn2c(-c3ccc(N4CC5CC4CCN5)cc3Cl)nc3c(OC4(C)CC4)ncnc32)c1 (racemic) [Example T491] | DLD-1 BRCA2−/− cells | false |
| Cc1ccnc(Cn2c(-c3ccc(OCC(=O)NCC(F)(F)F)cc3Cl)nc3c(OC4(C)CC4)ncnc32)c1 [Example T154] | DLD-1 BRCA2−/− cells | true |
| CC1(Oc2ncnc3c2nc(-c2cccc(OCCCC(C)(C)C(=O)O)c2Cl)n3Cc2cccc(Cl)c2)CC1 [Example T565] | DLD-1 BRCA2−/− cells | true |
| Cc1cc(Cl)cc(Cn2c(-c3ccc(OCCN4CCNCC4)cc3Cl)nc3c(OC4(C)CC4)ncnc32)n1 [Example T527] | DLD-1 BRCA2−/− cells | false |
| C#CCNC(=O)c1ccc(-c2nc3c(OC4(C)CC4)ncnc3n2Cc2cc(C)ccn2)c(Cl)c1 [Example T152] | DLD-1 BRCA2−/− cells | false |
| Cc1ccnc(Cn2c(-c3ccc(OCC(=O)N[C@H](C)CCO)cc3Cl)nc3c(OC4(C)CC4)ncnc32)c1 [Example T516] | DLD-1 BRCA2−/− cells | true |
| CC1(Oc2ncnc3c2nc(-c2ccc(OCCCC(C)(C)C(=O)O)cc2Cl)n3Cc2cccc(Cl)c2)CC1 [Example T563] | DLD-1 BRCA2−/− cells | true |
| Cc1cnc(Cn2c(-c3ccc(OC[C@H]4CCCN4)cc3Cl)nc3c(OC4(C)CC4)ncnc32)s1 [Example T139] | DLD-1 BRCA2−/− cells | false |

====

Test system: DLD-1 BRCA2−/− cells
Test: Homologous recombination synthetic lethal inhibition of proliferation, DLD-1 BRCA2-/- (Cell Titre Glo 3D)
Format: cell-based
Settings: Homo sapiens, DLD-1, 288 h, DLD-1 BRCA2−/−, 12 days, Cell Titre Glo 3D; read-out: POLQ PD Prolif Lumin BRCA2 −/− Mean pIC50 (converted)
Rule for this label: 1 (yes) means IC50 is less than 300 nM; 0 (no) means IC50 is at least 300 nM.

| COMPOUND | GROUP |
| --- | --- |
| CC1(Oc2ncnc3c2nc(-c2ccc(/C=C/C(=O)O)cc2Cl)n3Cc2cccc(Cl)c2)CC1 | 0 (no) |
| Cc1ccnc(Cn2c(-c3ccc(CC(N)=O)cc3Cl)nc3c(OC4(C)CC4)ncnc32)c1 | 0 (no) |
| Cc1ccnc(Cn2c(-c3ccc(OCC(C)(C)O)cc3Cl)nc3c(OC4(C)CC4)ncnc32)c1 | 1 (yes) |
| COc1ccc(Cl)cc1Cn1c(-c2cccc(OC[C@H](C)CC(=O)O)c2Cl)nc2c(OC3(C)CC3)ncnc21 (single isomer, unassigned; isomer 2) | 1 (yes) |
| CC1(Oc2ncnc3c2nc(-c2ccc(OCCCCC(=O)O)cc2Cl)n3Cc2cccc(Cl)c2)CC1 | 1 (yes) |
| Cc1ccnc(Cn2c(-c3ccc(OC[C@H](C)O)cc3Cl)nc3c(OC4(C)CC4)ncnc32)c1 | 1 (yes) |
| CC1(Oc2ncnc3c2nc(-c2ccc(OCCCC(=O)O)cc2Cl)n3Cc2cccc(Cl)c2)CC1 | 1 (yes) |

====

System: DLD-1 BRCA2−/− cells
Test: Homologous recombination synthetic lethal inhibition of proliferation, DLD-1 BRCA2-/- (Cell Titre Glo 3D)
Format: cell-based
Conditions: Homo sapiens, DLD-1, first proliferation column (c5); DLD-1 BRCA2-/-; read-out: POLQ PD Prolif Lumin (converted)
Please note: IC50 exactly at 300 nM is Condition not met. Only values below 300 nM get Condition met.

| COMPOUND | GROUP |
| --- | --- |
| Cc1ccnc(Cn2c(-c3ccc(C(=O)NCCCF)cc3Cl)nc3c(OC4(C)CC4)ncnc32)c1 [Example T191] | Condition not met |
| Cc1ccnc(Cn2c(-c3ccc(NC(=O)OCCO)cc3Cl)nc3c(OC4(C)CC4)ncnc32)c1 [Example T123] | Condition met |
| Cc1cnc(Cn2c(-c3ccc(OCCCN(C)C)cc3Cl)nc3c(OC4(C)CC4)ncnc32)s1 [Example T148] | Condition not met |
| Cc1ccnc(Cn2c(-c3ccc(OCCCN4CC(O)C4)cc3Cl)nc3c(OC4(C)CC4)ncnc32)c1 [Example T513] | Condition not met |
| Cc1ccnc(Cn2c(-c3ccc(OCC(=O)N4CC[C@@H](C#N)C4)cc3Cl)nc3c(OC4(C)CC4)ncnc32)c1 [Example T538] | Condition not met |
| Cc1ccnc(Cn2c(-c3ccc(CC(=O)N4C[C@H]5C[C@@H](C4)O5)cc3Cl)nc3c(OC4(C)CC4)ncnc32)c1 [Example T547] | Condition not met |
| Cc1ccnc(Cn2c(-c3ccc(N4CCC5NCCC54)cc3Cl)nc3c(OC4(C)CC4)ncnc32)c1 (stereo not drawn) [Example T492] | Condition not met |
| CNCCCOc1ccc(-c2nc3c(OC4(C)CC4)ncnc3n2Cc2cc(Cl)ccn2)c(Cl)c1 [Example T134] | Condition met |
| Cc1cccc(Cn2c(-c3ccc(OCCC(C)C(=O)O)cc3Cl)nc3c(OC4(C)CC4)ncnc32)c1C (racemic) [Example T570] | Condition not met |
| Cc1ccnc(Cn2c(-c3ccc(OCCN4CC[C@@H](O)C4)cc3Cl)nc3c(OC4(C)CC4)ncnc32)c1 [Example T512] | Condition met |
| Cc1cnc(Cn2c(-c3cccc(OCCCN(C)C)c3Cl)nc3c(OC4(C)CC4)ncnc32)s1 [Example T149] | Condition not met |
| Cc1ccnc(Cn2c(-c3ccc(C(=O)N4CC(O)C4)cc3Cl)nc3c(OC4(C)CC4)ncnc32)c1 [Example T180] | Condition not met |
| Cc1ccnc(Cn2c(-c3ccc(N4CCN5CCC4C5)cc3Cl)nc3c(OC4(C)CC4)ncnc32)c1 (racemic) [Example T493] | Condition met |
| CC1(Oc2ncnc3c2nc(-c2ccc(OCCN4CC5(CCN5)C4)cc2Cl)n3Cc2cc(Cl)ccn2)CC1 [Example T486] | Condition not met |
| Cc1ccnc(Cn2c(-c3ccc(CCC(N)=O)cc3Cl)nc3c(OC4(C)CC4)ncnc32)c1 [Example T116] | Condition not met |
